Target: T1, human LRRC15 extracellular domain with C-terminal His tag (human, UniProt Q8TF66 22-538)
T1 construct: Recombinant, made in HEK293; the entry holds the extracellular domain and the His tag; SPR analyte; also called TPP-1545; hLRRC15 CT-His
T1 sequence: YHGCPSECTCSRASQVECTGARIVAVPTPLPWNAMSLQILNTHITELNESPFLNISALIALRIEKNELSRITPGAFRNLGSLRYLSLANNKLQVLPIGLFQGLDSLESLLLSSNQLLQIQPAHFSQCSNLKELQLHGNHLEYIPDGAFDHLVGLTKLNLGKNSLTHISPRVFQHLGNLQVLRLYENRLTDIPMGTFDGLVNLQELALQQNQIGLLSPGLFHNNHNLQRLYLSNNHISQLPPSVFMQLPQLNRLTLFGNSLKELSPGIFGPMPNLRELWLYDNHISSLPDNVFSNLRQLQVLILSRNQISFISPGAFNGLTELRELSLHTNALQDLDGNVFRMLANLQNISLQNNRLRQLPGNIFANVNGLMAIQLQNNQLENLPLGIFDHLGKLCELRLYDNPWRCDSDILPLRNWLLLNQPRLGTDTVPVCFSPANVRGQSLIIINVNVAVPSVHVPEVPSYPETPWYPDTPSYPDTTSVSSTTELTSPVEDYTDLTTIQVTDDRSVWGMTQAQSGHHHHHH
Test name: SPR Biacore T200, antibody captured, LRRC15 analyte, 10°C
Procedure: To assess if anti-LRRC-15 antibodies show a difference in binding at different temperatures, binding assays were conducted using surface plasmon resonance (SPR). Binding assays were performed on a Biacore T200 instrument at temperatures of 10° C., 20° C., 25° C. and 37° C. with assay buffer HBS EP+, 1 mg/ml BSA (bovine serum albumine), 300 mM NaCl, 0.05% NaN₃. […]
Measured attribute: pKd
pKd is a log-scale quantity: -log10 of the concentration expressed in molar.

Below: 2 binders and their reported pKd.
TPP-17074 (antibody, human IgG1, kappa, V domains shown, also called 438H-M161-K22-hIgG1) VH: EVQLLESGGGLVQPGGSLRLSCAASGFTFSGYMMSWVRQAPGKGLEWVSGIYPSGGYALYADSVKGRFTISRDNSKNTLYLQMNSLRAEDTAVYYCAREKAADLFGSYSEALDYWGQGTLVTVSS VL: DIQMTQSPDSLSASVGDRVTITCRASQDVGSWLAWYQQKPGKAPKLLIFAASYLESGIPSRFSGSGSGTDFTLTISSLQPEDFATYYCQQANGFPLTFGGGTKVEIKR; 10.24
TPP-17078 (antibody, human IgG1, kappa, V domains shown, also called 438H-M308-H05-hIgGkappa) VH: EVQLVQSGAEVKKPGASVKVSCKASGYKFSSYWIEWVKQAPGQGLEWIGEILPGSDTTNYNEKFKDRATFTSDTSINTAYMELSRLRSDDTAVYYCARDRGNYRAWFGYWGQGTLVTVSS VL: DIQMTQSPSSLSASVGDRVTITCRASQSISSYLNWYQQKPGGAPKFLIYYASSLQSGVPSRFSGSGSGTDYTLTISSLQPEDFATYYCQQGFSLPWTFGGGTKVEIKR; 9.49

Now for another entry.
Value of measured pKd for the entry TPP-12942 (antibody, human IgG1, kappa, V domains shown, Prior art humanized IgG1 kappa antibody, used as comparator; also called huM25; huM25-hIgG1Kappa) VH: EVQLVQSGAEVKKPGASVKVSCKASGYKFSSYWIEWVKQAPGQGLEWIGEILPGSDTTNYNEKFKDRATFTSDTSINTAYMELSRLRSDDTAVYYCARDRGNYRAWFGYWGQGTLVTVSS VL: DIQMTQSPSSLSASVGDRVTITCRASQDISNYLNWYQQKPGGAVKFLIYYTSRLHSGVPSRFSGSGSGTDYTLTISSLQPEDFATYFCQQGEALPWTFGGGTKVEIKR : 8.28
